Consider the following compounds; for each one, report its IC50.
# Test system: RS4; 11Bcl-2-G101V cells
# test name: CellTiter-Glo (CTG) cell viability assay in RS4;11-Bcl-2-G101V cells
# Assay type: cell-based
# measurement setup: 72 h, 10% FBS, 3 days
# Method: RS4; 11Bcl-2-G101V, RS4; 11Bcl-2-D103E, RS4; 11Bcl-2-V156D and RS4; 11Bcl-2-G101V-D103E cells were obtained from Cobioer Biosciences. […] • The effect of representative Compounds of the Disclosure on cell viability was determined using CellTiter-Glo® (CTG) luminescent cell viability assay (Promega, USA) according to the manufacturer's instructions. […] Allow the plate to incubate at room temperature for 15 mins to stabilize signal and record RLU on the Biotek plate reader. […]
Record the value in µM, omitting the unit from your answer.

Challenge: Give recorded IC50. CC(C)c1ccccc1-c1csc(C2=C(CN3CCN(c4ccc(C(=O)NS(=O)(=O)c5ccc(NC[C@H]6COCCO6)c([N+](=O)[O-])c5)c(Oc5cnc6[nH]ccc6c5)c4)CC3)CCC(C)(C)C2)c1
Response given: 2.31

Challenge: Give recorded IC50. CCC(O)(CC)c1cc(F)c(-c2csc(C3=C(CN4CCN(c5ccc(C(=O)NS(=O)(=O)c6ccc(NC[C@H]7CC[C@](C)(O)CC7)c([N+](=O)[O-])c6)c(Oc6cnc7[nH]ccc7c6)c5)CC4)CCC(C)(C)C3)c2)c(F)c1
Response given: 0.84

Challenge: Give recorded IC50. CC1(C)CCC(CN2CCN(c3ccc(C(=O)NS(=O)(=O)c4ccc(NCC5CCOCC5)c([N+](=O)[O-])c4)c(Oc4cnc5[nH]ccc5c4)c3)CC2)=C(c2ccsc2CN2CCOCC2)C1
Response given: 1.81

---

# System: RS4; 11Bcl-2-G101V cells
# test name: CellTiter-Glo (CTG) cell viability assay in RS4;11-Bcl-2-G101V cells
# Assay type: cell-based
# measurement setup: 72 h, 10% FBS, 3 days
# Method: RS4; 11Bcl-2-G101V, RS4; 11Bcl-2-D103E, RS4; 11Bcl-2-V156D and RS4; 11Bcl-2-G101V-D103E cells were obtained from Cobioer Biosciences. […] • The effect of representative Compounds of the Disclosure on cell viability was determined using CellTiter-Glo® (CTG) luminescent cell viability assay (Promega, USA) according to the manufacturer's instructions. […] Allow the plate to incubate at room temperature for 15 mins to stabilize signal and record RLU on the Biotek plate reader. […]
test readout: IC50

Challenge: Give recorded IC50. CC1(C)CCC(CN2CCN(c3ccc(C(=O)NS(=O)(=O)c4ccc(NC[C@H]5COCCO5)c([N+](=O)[O-])c4)c(Oc4cnc5[nH]ccc5c4)c3)CC2)=C(c2cc(-c3c(F)cc(F)c4cc[nH]c34)cs2)C1
Response given: 5.81 µM

Challenge: Give recorded IC50. CC1(C)CCC(CN2CCN(c3ccc(C(=O)NS(=O)(=O)c4ccc(NC[C@H]5COCCO5)c([N+](=O)[O-])c4)c(Oc4cnc5[nH]ccc5c4)c3)CC2)=C(c2cc(C(=O)Nc3ccccc3)cs2)C1
Response given: 4.25 µM

---

Consider the following compounds; for each one, report its log10 IC50.
# Test system: RS4; 11Bcl-2-G101V cells
# test name: CellTiter-Glo (CTG) cell viability assay in RS4;11-Bcl-2-G101V cells
# Type: cell-based
# measurement setup: 72 h, 10% FBS, 3 days
Log scale reminder: IC50 in nM, then log10 taken.

Challenge: Give recorded log10 IC50. CC1(C)CCC(CN2CCN(c3ccc(C(=O)NS(=O)(=O)c4ccc(NC[C@H]5CC[C@](C)(O)CC5)c([N+](=O)[O-])c4)c(Oc4cnc5[nH]ccc5c4)c3)CC2)=C(c2cc(-c3ccc4c(c3)CCC4(C)O)cs2)C1 (stereo partly drawn)
Response given: 2.23

Challenge: Give recorded log10 IC50. CC1(C)CCC(CN2CCN(c3ccc(C(=O)NS(=O)(=O)c4ccc(NC[C@H]5CC[C@@](C)(O)CC5)c([N+](=O)[O-])c4)c(Oc4cnc5[nH]ccc5c4)c3)CC2)=C(c2cc(-c3ccc(F)cc3)cs2)C1
Response given: 2.76

Challenge: Give recorded log10 IC50. CC1(C)CCC(CN2CCN(c3ccc(C(=O)NS(=O)(=O)c4ccc(NCC5CCOCC5)c([N+](=O)[O-])c4)c(Oc4cnc5[nH]ccc5c4)c3)CC2)=C(c2ccc(CN3CCOCC3)s2)C1
Response given: 3.41

Challenge: Give recorded log10 IC50. Cc1sc(C2=C(CN3CCN(c4ccc(C(=O)NS(=O)(=O)c5ccc(NC[C@H]6CC[C@](C)(O)CC6)c([N+](=O)[O-])c5)c(Oc5cnc6[nH]ccc6c5)c4)CC3)CCC(C)(C)C2)cc1-c1c(F)cc(C(C)(C)O)cc1F
Response given: 3.23

Challenge: Give recorded log10 IC50. CC1(C)CCC(CN2CCN(c3ccc(C(=O)NS(=O)(=O)c4ccc(NC[C@H]5CC[C@](C)(O)CC5)c([N+](=O)[O-])c4)c(Oc4cnc5[nH]ccc5c4)c3)CC2)=C(c2cc(-c3ccc(C(C)(C)O)cc3)cs2)C1
Response given: 2.46

Challenge: Give recorded log10 IC50. CC1(C)CCC(CN2CCN(c3ccc(C(=O)NS(=O)(=O)c4ccc(NCC5CCOCC5)c([N+](=O)[O-])c4)c(Oc4cnc5[nH]ccc5c4)c3)CC2)=C(c2csc(C(F)(F)F)c2)C1
Response given: 3.58

Challenge: Give recorded log10 IC50. CC1(C)CCC(CN2CCN(c3ccc(C(=O)NS(=O)(=O)c4ccc(NC[C@H]5COCCO5)c([N+](=O)[O-])c4)c(Oc4cnc5[nH]ccc5c4)c3)CC2)=C(c2cc(-c3ccc(C(F)F)cc3)cs2)C1
Response given: 2.91

Challenge: Give recorded log10 IC50. CC1(C)CCC(CN2CCN(c3ccc(C(=O)NS(=O)(=O)c4ccc(NC[C@H]5COCCO5)c([N+](=O)[O-])c4)c(Oc4cnc5[nH]ccc5c4)c3)CC2)=C(c2cc(CN3CCOCC3)cs2)C1
Response given: 2.64

Challenge: Give recorded log10 IC50. CC1(C)CCC(CN2CCN(c3ccc(C(=O)NS(=O)(=O)c4ccc(NC[C@H]5CC[C@](C)(O)CC5)c([N+](=O)[O-])c4)c(Oc4cnc5[nH]ccc5c4)c3)CC2)=C(c2cc(CN3CCOCC3)cs2)C1
Response given: 2.53

---

Consider the following compounds; for each one, report its IC50.
# system tested: Bcl-2 WT (Homo sapiens)
# Sequence (P10415 whole entry): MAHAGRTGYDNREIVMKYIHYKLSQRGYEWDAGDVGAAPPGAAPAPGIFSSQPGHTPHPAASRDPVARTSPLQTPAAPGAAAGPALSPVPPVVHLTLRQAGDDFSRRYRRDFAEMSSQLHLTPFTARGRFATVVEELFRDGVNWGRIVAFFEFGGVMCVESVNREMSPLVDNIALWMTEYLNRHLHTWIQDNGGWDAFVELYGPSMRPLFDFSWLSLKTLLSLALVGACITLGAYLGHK
# test name: Bcl-2 WT inhibition, fluorescence polarization (Flu-BIM tracer) binding assay
# measurement setup: FP; 20 nM Bcl2, 5 nM Flu-BIM, 1 h incubation; read-out: Bcl-2 w.t. (FP)
Record the value in nM, omitting the unit from your answer.

Challenge: Give recorded IC50. CC1(C)CCC(CN2CCN(c3ccc(C(=O)NS(=O)(=O)c4ccc(NC[C@H]5CC[C@](C)(O)CC5)c([N+](=O)[O-])c4)c(Oc4cnc5[nH]ccc5c4)c3)CC2)=C(c2cc(CN3CCOCC3)cs2)C1 [Example 24]
Response given: 15.9

Challenge: Give recorded IC50. CCC(O)(CC)c1cc(F)c(-c2csc(C3=C(CN4CCN(c5ccc(C(=O)NS(=O)(=O)c6ccc(NC[C@H]7CC[C@](C)(O)CC7)c([N+](=O)[O-])c6)c(Oc6cnc7[nH]ccc7c6)c5)CC4)CCC(C)(C)C3)c2)c(F)c1 [Example 67]
Response given: 27.2

---

Consider the following compounds; for each one, report its IC50.
# System: RS4; 11Bcl-2-G101V cells
# test name: CellTiter-Glo (CTG) cell viability assay in RS4;11-Bcl-2-G101V cells
# Type: cell-based
# measurement setup: 72 h, 10% FBS, 3 days
Record the value in nM, omitting the unit from your answer.

Challenge: Give recorded IC50. CC1(C)CCC(CN2CCN(c3ccc(C(=O)NS(=O)(=O)c4ccc(NC[C@H]5CC[C@](C)(O)CC5)c([N+](=O)[O-])c4)c(Oc4cnc5[nH]ccc5c4)c3)CC2)=C(c2cc(-c3cc(C(C)(C)O)ccc3F)cs2)C1
Response given: 1580

Challenge: Give recorded IC50. Cc1cc(C(C)(C)O)cc(C)c1-c1csc(C2=C(CN3CCN(c4ccc(C(=O)NS(=O)(=O)c5ccc(NC[C@H]6CC[C@](C)(O)CC6)c([N+](=O)[O-])c5)c(Oc5cnc6[nH]ccc6c5)c4)CC3)CCC(C)(C)C2)c1
Response given: 598

Challenge: Give recorded IC50. CC1(C)CCC(CN2CCN(c3ccc(C(=O)NS(=O)(=O)c4ccc(NC[C@H]5COCCO5)c([N+](=O)[O-])c4)c(Oc4cnc5[nH]ccc5c4)c3)CC2)=C(c2cc(-c3ccc(F)cc3F)cs2)C1
Response given: 480

Challenge: Give recorded IC50. CC1(C)CCC(CN2CCN(c3ccc(C(=O)NS(=O)(=O)c4ccc(NCC5CCOCC5)c([N+](=O)[O-])c4)c(Oc4cnc5[nH]ccc5c4)c3)CC2)=C(c2ccsc2-c2ccccc2)C1
Response given: 6160

Challenge: Give recorded IC50. CC1(C)CCC(CN2CCN(c3ccc(C(=O)NS(=O)(=O)c4ccc(NC[C@H]5CC[C@](C)(O)CC5)c([N+](=O)[O-])c4)c(Oc4cnc5[nH]ccc5c4)c3)CC2)=C(c2cc(-c3c(F)cc(C(C)(C)O)cc3F)cs2)C1
Response given: 14

Challenge: Give recorded IC50. CC1(C)CCC(CN2CCN(c3ccc(C(=O)NS(=O)(=O)c4ccc(NC[C@H]5CC[C@](C)(O)CC5)c([N+](=O)[O-])c4)c(Oc4cnc5[nH]ccc5c4)c3)CC2)=C(c2cc(C#Cc3ccc(F)cc3)cs2)C1
Response given: 3180

Challenge: Give recorded IC50. CC1(C)CCC(CN2CCN(c3ccc(C(=O)NS(=O)(=O)c4ccc(NC[C@H]5COCCO5)c([N+](=O)[O-])c4)c(Oc4cnc5[nH]ccc5c4)c3)CC2)=C(c2cc(-c3ccc(Cl)cc3)cs2)C1
Response given: 1640

Challenge: Give recorded IC50. CC1(C)CCC(CN2CCN(c3ccc(C(=O)NS(=O)(=O)c4ccc(NC[C@H]5CC[C@](C)(O)CC5)c([N+](=O)[O-])c4)c(Oc4cnc5[nH]ccc5c4)c3)CC2)=C(c2cc(-c3ccc(C(F)(F)F)cc3)cs2)C1
Response given: 3230
